System: RAW264.7
MEASUREMENT NOTES: Cytotoxicity against mouse RAW264.7 cells assessed as cell viability at 20 uM incubated for 24 hrs by CCK8 assay
Type: toxicity, cell-based
SETUP CONDITIONS: raw264.7, 24 h

MOLECULE: C[C@H](CCC(=O)N1CCN(C(=O)/C=C/c2cc(F)c(F)c(F)c2)CC1)[C@H]1CC[C@H]2[C@@H]3[C@@H](O)C[C@@H]4C[C@H](O)CC[C@]4(C)[C@H]3CC[C@]12C
ASSAY SYSTEM: RAW264.7
Activity: Toxic

MOLECULE: C[C@H](CCC(=O)N1CCN(C(=O)/C=C\c2ccc3c(c2)OCO3)CC1)[C@H]1CC[C@H]2[C@@H]3[C@@H](O)C[C@@H]4C[C@H](O)CC[C@]4(C)[C@H]3CC[C@]12C
ASSAY SYSTEM: RAW264.7
Activity: Non-Toxic

MOLECULE: C[C@H](CCC(=O)N1CCN(C(=O)/C=C/c2ccc(OC(F)(F)F)cc2)CC1)[C@H]1CC[C@H]2[C@@H]3[C@@H](O)C[C@@H]4C[C@H](O)CC[C@]4(C)[C@H]3CC[C@]12C
ASSAY SYSTEM: RAW264.7
Activity: Toxic

MOLECULE: COc1cc(/C=C\C(=O)N2CCN(C(=O)CC[C@@H](C)[C@H]3CC[C@H]4[C@@H]5[C@@H](O)C[C@@H]6C[C@H](O)CC[C@]6(C)[C@H]5CC[C@]34C)CC2)ccc1O
ASSAY SYSTEM: RAW264.7
Activity: Non-Toxic

MOLECULE: CC(=O)O[C@@H]1CC[C@@]2(C)[C@@H](C1)C[C@H](OC(C)=O)[C@@H]1[C@@H]2CC[C@]2(C)[C@@H]([C@H](C)CCC(=O)N3CCN(C(=O)/C=C/c4ccc(C)cc4)CC3)CC[C@@H]12
ASSAY SYSTEM: RAW264.7
Activity: Non-Toxic

MOLECULE: C[C@H](CCC(=O)N1CCN(C(=O)/C=C/c2ccc(Cl)c(Cl)c2)CC1)[C@H]1CC[C@H]2[C@@H]3[C@@H](O)C[C@@H]4C[C@H](O)CC[C@]4(C)[C@H]3CC[C@]12C
ASSAY SYSTEM: RAW264.7
Activity: Non-Toxic

MOLECULE: C[C@H](CCC(=O)N1CCN(C(=O)/C=C/c2ccccc2Cl)CC1)[C@H]1CC[C@H]2[C@@H]3[C@@H](O)C[C@@H]4C[C@H](O)CC[C@]4(C)[C@H]3CC[C@]12C
ASSAY SYSTEM: RAW264.7
Activity: Non-Toxic

MOLECULE: C[C@H](CCC(=O)N1CCN(C(=O)/C=C/c2ccc(Cl)cc2)CC1)[C@H]1CC[C@H]2[C@@H]3[C@@H](O)C[C@@H]4C[C@H](O)CC[C@]4(C)[C@H]3CC[C@]12C
ASSAY SYSTEM: RAW264.7
Activity: Non-Toxic

MOLECULE: C[C@H](CCC(=O)N1CCN(C(=O)/C=C/c2cccc3ccccc23)CC1)[C@H]1CC[C@H]2[C@@H]3[C@@H](O)C[C@@H]4C[C@H](O)CC[C@]4(C)[C@H]3CC[C@]12C
ASSAY SYSTEM: RAW264.7
Activity: Non-Toxic
